Values were extracted from ChEMBL document CHEMBL5260801.

Biological target: Induced myeloid leukemia cell differentiation protein Mcl-1/Bcl-2-like protein 11 (Homo sapiens)
Experiment: Inhibition of N-terminal GST-tagged human recombinant Mcl-1 expressed in Escherichia coli /human Bim measured for 60 mins by TR-FRET based LanthaScreen Eu-Kinase binding assay
measurement_type: IC50 (nM)
Quick reminder: number only, in nM, skip the unit.

Would you please look over these solved cases?
smiles_repr=CNC(=O)C[C@@H](Cc1ccc(Cl)c(CCc2ccccc2)c1)NC(=O)CN1C(=O)[C@@H](NC(=O)C[C@@H](N)Cc2ccc(Cl)cc2)CCc2ccccc21 units_symbol=nM value=193
smiles_repr=CCN[C@H](CC(=O)N[C@H]1CCc2ccccc2N(CC(=O)N[C@@H](CC(=O)NC)Cc2ccc(Cl)c(Cl)c2)C1=O)Cc1ccc(Cl)cc1 units_symbol=nM value=2100

The reported IC50 of the compound CN1CCCN[C@@H](Cc2ccc(S(C)(=O)=O)cc2)CC(=O)N[C@H]2CCc3ccccc3N(CC(=O)N[C@H](Cc3ccc(Cl)c(/C=C/c4ccccc4)c3)CC1=O)C2=O was 375

---

Molecular target: Induced myeloid leukemia cell differentiation protein Mcl-1/Bcl-2-like protein 11 (Homo sapiens, UniProt Q07820)
Sequence (Q07820 whole entry): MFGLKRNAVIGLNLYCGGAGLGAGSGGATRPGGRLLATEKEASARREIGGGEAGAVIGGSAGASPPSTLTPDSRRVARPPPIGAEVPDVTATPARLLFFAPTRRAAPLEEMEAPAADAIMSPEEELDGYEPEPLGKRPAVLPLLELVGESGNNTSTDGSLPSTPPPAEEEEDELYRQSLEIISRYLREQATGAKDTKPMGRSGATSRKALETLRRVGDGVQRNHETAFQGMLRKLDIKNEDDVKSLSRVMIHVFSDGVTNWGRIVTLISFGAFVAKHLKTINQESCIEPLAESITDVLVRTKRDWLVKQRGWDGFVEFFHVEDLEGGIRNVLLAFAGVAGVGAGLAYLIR
Sequence (O43521 whole entry, further chain): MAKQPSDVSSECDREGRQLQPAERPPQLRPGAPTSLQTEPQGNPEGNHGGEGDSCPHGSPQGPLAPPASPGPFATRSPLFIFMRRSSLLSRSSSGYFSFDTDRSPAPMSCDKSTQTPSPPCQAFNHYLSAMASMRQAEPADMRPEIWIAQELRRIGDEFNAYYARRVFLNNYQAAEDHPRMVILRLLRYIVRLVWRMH
Assay: Inhibition of N-terminal GST-tagged human recombinant Mcl-1 expressed in Escherichia coli /human Bim measured for 60 mins by TR-FRET based LanthaScreen Eu-Kinase binding assay
# IC50 per entry
Give the value in nM but do not write nM after it.

The examples below pair each entry with its known result.
smiles_repr=CN1CCCN[C@@H](Cc2ccc(Cl)cc2)CC(=O)N[C@H]2CCc3ccccc3N(CC(=O)N[C@H](Cc3ccc(Cl)c(/C=C/c4ccccc4)c3)CC1=O)C2=O measurement_type=IC50 value=2230
smiles_repr=CN1CCCCCN[C@@H](Cc2ccc(Cl)cc2)CC(=O)N[C@H]2CCc3ccccc3N(CC(=O)N[C@H](Cc3ccc(Cl)c(Cl)c3)CC1=O)C2=O measurement_type=IC50 value=277
smiles_repr=CN(C)C(=O)C[C@@H](Cc1ccc(Cl)c(Cl)c1)NC(=O)CN1C(=O)[C@@H](NC(=O)C[C@@H](N)Cc2ccc(Cl)cc2)CCc2ccccc21 measurement_type=IC50 value=2250
smiles_repr=CN1CCCN[C@@H](Cc2ccc(S(C)(=O)=O)cc2)CC(=O)N[C@H]2CCc3ccccc3N(CC(=O)N[C@H](Cc3ccc(Cl)c(-c4ccc5ccccc5c4)c3)CC1=O)C2=O measurement_type=IC50 value=112

Here's the next entry for you.
# IC50 of CN1CCCN[C@@H](Cc2ccc(S(C)(=O)=O)cc2)CC(=O)N[C@H]2CCc3ccccc3N(CC(=O)N[C@H](Cc3ccc(Cl)c(-c4cc5ccccc5o4)c3)CC1=O)C2=O = 116
